All figures here come from the supplement of paper PMC10567573.

B1: SASS6 (parent)
chain: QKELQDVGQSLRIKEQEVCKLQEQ

- Variants of: B1
- assayRemarks: protein stability index of a GFP-peptide fusion (GPS, HEK-293T) (PSI 1-6); higher = more stable;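 note: lentivirally expressed fusions sorted by FACS into six bins by GFP to DsRed ratio, PSI derived from sequencing read proportions per bin multiplied by bin number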
- experimentalParameters: c terminus: a fixed tail appended
measuredAttribute: protein stability index
Numbers only.

Here is how some variants turned out for protein stability index.
- QKELQDVGQSLRCKEQEVCKLQEQ [I13C]: 3.3
- CKELQDVGQSLRIKEQEVCKLQEQ [Q1C]: 4.99
- QKELQDVLQSLRIKEQEVCKLQEQ [G8L]: 3.83

For each listed entry, give its protein stability index.
1. QKELQDVGISLRIKEQEVCKLQEQ [Q9I]
2. QKELQEVGQSLRIKEQEVCKLQEQ [D6E]
3. QKELQDVGQSLRIKEQEVCKIQEQ [L21I]

Marked response:
[4.97, 5.05, 5.43]
